Values from paper PMC11213709

Tested Target: SP2
Construct: de novo designed C2-symmetric homodimer, two ZnPPaM per dimer
Assay Text: X-ray crystal structure at […] Å; CD titration (Kd1 […], Kd2 […]); absorption titration (Kd1 […], Kd2 […]); fluorescence titration ([…])
Reported Property: pKd
Answers are plain numbers, as −log10 of the molar value.

Give the measured pKd of C=Cc1c(C)c2[n]3c1=CC1=NC(=Cc4c(C)c5c([n]4[Zn]3)C(=C3N=C(C=2)[C@@H](C)[C@@H]3CCC(=O)OC)[C@@H](C(=O)OC)C5=O)C(CC)=C1C [ZnPPaM] .
6.52

====

Tested Target: SP3
Construct: de novo designed C2-symmetric homodimer, two ZnPPaM per dimer
Assay Text: CD titration (Kd1 […], Kd2 […]); absorption titration (Kd1 […], Kd2 […]); fluorescence titration ([…])
Reported Property: pKd
Numbers only, as −log10 of the molar value.

Give the measured pKd of C=Cc1c(C)c2[n]3c1=CC1=NC(=Cc4c(C)c5c([n]4[Zn]3)C(=C3N=C(C=2)[C@@H](C)[C@@H]3CCC(=O)OC)[C@@H](C(=O)OC)C5=O)C(CC)=C1C [ZnPPaM] .
6.10

====

Tested Target: SP1
Construct: de novo designed C2-symmetric homodimer, two ZnPPaM per dimer
Assay Text: X-ray crystal structure at […] Å; absorption titration (Kd1 […], Kd2 […]); fluorescence titration ([…])
Reported Property: Kd
The reply should read as a number followed by its unit.

Give the measured Kd of C=Cc1c(C)c2[n]3c1=CC1=NC(=Cc4c(C)c5c([n]4[Zn]3)C(=C3N=C(C=2)[C@@H](C)[C@@H]3CCC(=O)OC)[C@@H](C(=O)OC)C5=O)C(CC)=C1C [ZnPPaM] .
290 nM
